system-tested: Human CARM1 (PRMT4) (Homo sapiens)
Sequence (Q86X55 2-585 isoform Q86X55-1): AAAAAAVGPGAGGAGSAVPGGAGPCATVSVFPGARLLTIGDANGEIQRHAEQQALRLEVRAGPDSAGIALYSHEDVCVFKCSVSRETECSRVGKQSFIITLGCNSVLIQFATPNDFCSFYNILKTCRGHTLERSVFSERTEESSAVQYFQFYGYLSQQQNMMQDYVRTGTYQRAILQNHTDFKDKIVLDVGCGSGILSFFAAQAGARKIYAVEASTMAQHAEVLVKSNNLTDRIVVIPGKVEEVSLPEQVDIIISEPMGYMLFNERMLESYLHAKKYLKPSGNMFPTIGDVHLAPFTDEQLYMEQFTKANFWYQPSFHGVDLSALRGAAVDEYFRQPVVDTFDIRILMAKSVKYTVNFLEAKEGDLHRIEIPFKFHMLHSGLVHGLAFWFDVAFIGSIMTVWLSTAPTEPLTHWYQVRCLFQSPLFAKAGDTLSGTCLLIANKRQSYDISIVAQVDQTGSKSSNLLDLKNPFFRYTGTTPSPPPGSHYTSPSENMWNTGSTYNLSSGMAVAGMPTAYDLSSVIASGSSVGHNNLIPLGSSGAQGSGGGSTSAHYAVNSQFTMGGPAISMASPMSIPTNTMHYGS
pIC50: −log10 of the molar value.
Values of pIC50 greater than or equal to 7 map to rule met; values below map to rule not met.

chemical-string: CNCCN(C)Cc1cccc(-c2cc(C(=O)N(C)Cc3ccccn3)c3cnn(C(C)C)c3n2)c1
assigned-category: rule not met

Next up:
INPUT: Can CN(CCN)Cc1cccc(-c2nc(NC3CC3)c3cnn(C4CC4)c3n2)c1 be said to have pIC50 at or above 7?
OUTPUT: rule met

# credit: patent US20170280720A1
